- measurement-target: BV2509 (recombinant CoV S glycoprotein, BA.1) (SARS-CoV-2, UniProt P0DTC2 14-1273)
- experiment-summary: hACE2 receptor inhibition ELISA on coated rS; competitor hACE2-His
Examples of binders with documented IC50 follow.
// units = µg/mL; emit number, no label

binder	number
322.3 (antibody, V domains shown) VH: RVQLQQSGPELVKPGASVTISCKASGYIFTSDYIHWVKQRPGQGPEWIGWIYPGNINTKYNEKFKGKATLTADKSSSTAYMQLSSLTSEDSAVYFCARDDGNLYYYAMDYWGQGTSVTVSS VL: NIVLTQSPASLAVSLGQRATISCRASESVDSYGSSFMHWYQQKPGQPPKLLIYLASNLESGVPARFSGSGSRTDFTLTIDPVEADDAATYYCQQNNEDPRTFGGGTKLEIK	0.493

Now look at this one.
GET /value?item= 35.13 (antibody, V domains shown) VH: QVQLQQSGAELGKPGASVKLSCRASGYTFTRYYIYWVKQRPGQGLEWIGEINPSNGDTHFNEKFKTKATLTVDKSSSSAHIHLTSLTSEDSAVYYCSIHAYSFDFWGQGTTLTVSS VL: EIQMTQSPSSMSASLGDRITITCQATQDIVKNLNWYQQKPGKPPSFLIYHATELAKGVPSRFSGSGSGSDYSLTISNLESEDFADYYCLQFYDFPFTFGAGTKLELKR &field=IC50 returns 0.097
